- ASSAY SYSTEM: T1, human Siglec-15, full length, expressed on cells (human, UniProt Q6ZMC9 20-328)
- T1 construct: also called hS15; MOLM-13 Siglec-15 expressing cells
- T1 sequence: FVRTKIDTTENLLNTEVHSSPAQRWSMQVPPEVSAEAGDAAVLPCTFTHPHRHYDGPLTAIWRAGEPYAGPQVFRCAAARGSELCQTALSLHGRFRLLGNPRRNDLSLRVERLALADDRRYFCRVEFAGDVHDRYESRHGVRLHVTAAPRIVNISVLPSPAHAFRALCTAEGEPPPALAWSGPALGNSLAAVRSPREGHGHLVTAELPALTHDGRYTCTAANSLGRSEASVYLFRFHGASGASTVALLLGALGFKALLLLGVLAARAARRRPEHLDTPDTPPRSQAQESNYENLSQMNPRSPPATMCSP
- TEST METHOD NOTES: flow cytometry, HEK293T cells expressing human Siglec-15, anti-human IgG-PE, MFI
The following binders are listed with their measured EC50 (read off the curve) values.

Example binders with recorded EC50 (read off the curve):
BINDER	EC50 (read off the curve)
S15B1-VH2 + VL2 (antibody, V domains shown, Humanized S15B1; also called humanized S15B1 VH2+VL2; huS15B1) VH: QVQLVQSGAEVKKPGASVKVSCKASGYAFSSSWMNWVRQAPGQGLEWIGRIYPGHGETNYNGKFKDRVTMTADTSTSTVYMELSSLRSEDTAVYFCARVDNSDPYYFDYWGQGTTVTVSS VL: DIVLTQSPASLAVSPGQRATITCRASKSVSTSGYSYMHWYQQKPGQPPKLLIYLASNLESGVPARFSGSGSGTDFTLTINPVEAEDTATYYCQHGRELPFTFGGGTKLEIK	~1 nM
S15B1 (antibody, V domains shown, Mouse hybridoma monoclonal antibody ('parental mouse S15B1'); also called clone S15B1; S15B1-VH + VL (Parental)) VH: QVQLQQSGPELVKPGASVKISCKASGYAFSSSWMNWVKQRPGKGLEWIGRIYPGHGETNYNGKFKDKATVTADKSSSTTYMQLSSLTSEDSAVYFCARVDNSDPYYFDYWGQGTTLTVSS VL: DIVLTQSPASLAVSLGQRATISCRASKSVSTSGYSYMHWYQQKPGQPPKLLIYLASNLESGVPARFSGSGSGTDFTLNIHPVEEEDAATYYCQHGRELPFTFGSGTKLEIK	~0.5 nM
S15B1-VH3 + VL1 (antibody, V domains shown, Humanized S15B1; also called humanized S15B1 VH3+VL1; huS15B1) VH: QVQLVQSGAEVKKPGASVKVSCKASGYAFSSSWMNWVKQAPGQGLEWIGRIYPGHGETNYNGKFKDRATMTADTSTSTVYMELSSLRSEDTAVYFCARVDNSDPYYFDYWGQGTTVTVSS VL: DIVLTQSPASLAVSPGQRATITCRASKSVSTSGYSYMHWYQQKPGQPPKLLIYLASNLESGVPARFSGSGSGTDFTLTINPVEAEDTANYYCQHGRELPFTFGGGTKLEIK	~1 nM

Sure, the documented EC50 (read off the curve) for S15B1-VH3 + VL2 (antibody, V domains shown, Humanized S15B1; also called humanized S15B1 VH3+VL2; huS15B1) VH: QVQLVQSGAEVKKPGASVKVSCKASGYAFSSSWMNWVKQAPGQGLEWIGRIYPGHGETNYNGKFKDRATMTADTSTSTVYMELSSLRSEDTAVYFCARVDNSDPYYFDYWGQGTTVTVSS VL: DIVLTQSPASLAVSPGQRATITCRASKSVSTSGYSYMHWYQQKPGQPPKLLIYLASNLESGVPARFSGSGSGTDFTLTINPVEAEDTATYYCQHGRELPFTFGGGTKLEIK is ~1 nM
